- measurementProtocol: reduction of polyQ htt aggregates in cells – imaging, exon1htt(103Q)mCFP cells, high-content imaging, primary screen (AID 483);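 note: compound exposure lasted 3 days before fixation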
- condition: exon1htt(103Q)mCFP cell line, aggregate imaging, at 2 µM; active compounds read high
Provide the recorded inhibition of aggregation for the entries that follow.
Numbers only, in %.

compound | inhibition of aggregation (%)
CCOCCCNC(=O)c1ccc2c(c1)ncn2C1CCCC1 | -5.5
COc1ccccc1N1CCN(C(=O)CSc2nc(-c3ccccc3)cc(=O)[nH]2)CC1 | -9.2
CCOc1ccc(C(=O)Cc2ccc3oc(C(=O)O)cc3c2)c(O)c1 | 4.1

Provide each entry's inhibition of aggregation from the list below.
1. O=C(CCCCCn1c(=O)[nH]c2ccsc2c1=O)N1CCCCC1
2. CCOC(=O)c1[nH]c(C)c(C(=O)Nc2cc(OC)ccc2OC)c1C

1: 25.2; 2: -3.7

Provide each entry's inhibition of aggregation from the list below.
1. N#C[C@@H]1[C@@H]2C(=O)N(c3ccc4c(c3)OCCO4)C(=O)[C@@H]2C2c3ccccc3C=CN21 (stereo not given in full)
2. CCOC(=O)N1CCN(c2cc(=O)n(-c3ccc(OCC)cc3)c(=O)[nH]2)CC1

1: 6.7; 2: 9.3

Provide each entry's inhibition of aggregation from the list below.
1. COc1ccc(Cl)cc1NC(=O)COc1cccc(-n2cnnn2)c1
2. COc1ccc2c(=O)c3c(=O)n(Cc4ccco4)c(C(C)C)nc3oc2c1
3. CC(C)(C)c1cc(C(=O)O)nn1-c1ccccc1
4. O=c1cc(-c2ccc(Cl)cc2)[nH][nH]1

1: 5.6; 2: -10.1; 3: 2.7; 4: 10.1

Provide each entry's inhibition of aggregation from the list below.
1. CC(C(=O)N1CCc2ccccc21)N1CCc2ccccc2C1 (stereo not given)
2. Brc1ccc(-c2nnc3sc(CN4CCC5(CC4)OCCO5)cn23)cc1
3. Cc1n[nH]c(C)c1S(=O)(=O)N1CCN(c2ccccn2)CC1
4. Cc1cccc(NC(=O)c2cc3n(n2)C(C(F)(F)F)CC(c2ccc4c(c2)OCO4)N3)c1 (stereo not given)
5. CC(C)c1ccc(NC(=O)C2CC(=O)N(C(C)C)C2)cc1 (stereo not given)
6. CS(=O)(=O)Nc1ccc(S(=O)(=O)Nc2nccs2)cc1
7. COc1ccccc1-c1nnc2sc(-c3ccc(N(C)C)cc3)nn12

1. 16.1
2. -6.9
3. 12.4
4. 0.5
5. 21
6. -6.9
7. -34.9

Provide each entry's inhibition of aggregation from the list below.
1. CCN1CCN(c2c(Cl)cccc2NC(=O)c2ccco2)CC1
2. CCn1nnc(-c2ccccc2NC(=O)c2ccc(-n3cnnn3)cc2)n1
3. CCN(CC)CCNC(=O)C1CCN(S(=O)(=O)N2CCCCC2)CC1
4. CC(C)c1ccc(S(=O)(=O)N2CCN(C(=O)c3cccc(F)c3)CC2)cc1
5. CCc1nnc(NC(=O)c2ccc(-c3cccc(C(F)(F)F)c3)o2)s1
6. O=C(CNS(=O)(=O)c1ccc(Br)s1)N1CCN(c2ncccn2)CC1

1: -8.4; 2: -19; 3: -30.2; 4: 17; 5: 43.6; 6: 13.7

Provide each entry's inhibition of aggregation from the list below.
1. Brc1ccc2[nH]ncc2c1
2. Cn1c(C(=O)NCC2CCCO2)cc2c(=O)[nH]c3ccccc3c21 (stereo not given)
3. COc1ccc(OC(C)C(=O)N2CCN(c3ccccn3)CC2)cc1 (stereo not given)

1. 8.2
2. -27.1
3. 3

Provide each entry's inhibition of aggregation from the list below.
1. Cc1nc2sc3c(c2c(=O)o1)CCC3
2. CC1=C(C#N)C(c2ccoc2)C(C(=O)OCc2ccccc2)=C(N)S1 (stereo not given)
3. CCn1c(=O)cc(OCC(=O)NCCCN2CC(C)CC(C)C2)c2ccccc21 (stereo not given)
4. COc1ccc(OC)c(C2C3=C(CCCC3=O)Nc3c2c(=O)n(C)c(=O)n3C)c1 (stereo not given)
5. CCn1c2ccccc2c2cc(NC(=O)CSc3nnc(C4CC4)n3Cc3ccco3)ccc21
6. O=C(COc1ccccc1Cl)OCC(=O)N1CCN(S(=O)(=O)c2ccccc2)CC1
7. Cc1cc2ncn(N)c2cc1C
8. CCOC(=O)N1CCC(NC(=O)C2CCCN2C(=O)OCc2ccccc2)CC1 (stereo not given)

1: -0.2; 2: -13.3; 3: -18.3; 4: 4.8; 5: 2.5; 6: -0.5; 7: -20.7; 8: -11.6

Provide each entry's inhibition of aggregation from the list below.
1. Cc1cccc2cc(CN(Cc3nnnn3C3CCCC3)C3CCCCC3)c(=O)[nH]c12
2. Cc1ccc(C)c(NC(=O)C2CCC(C)(C(=O)O)C2(C)C)c1 (stereo not given)
3. COCCOC(=O)C1=C(C)N=c2s/c(=C\c3cccs3)c(=O)n2C1c1cccs1 (stereo not given)

-3.3
6
-47

These measurements were taken from PubChem BioAssay.
